Measured values drawn from PubChem BioAssay AID1963867 for this set.

System: KRAS-mutant PDC tumor spheroid with HUVEC/MSC, viability
PROCEDURE DETAILS: Anticancer human tumor 327498-153-R-J2-PDC patient-derived uterine carcinosarcoma cell line growth inhibition [KRAS2]
SETTINGS: curve of first compound; second compound 1 µM
RECORDED ENDPOINT: pIC50
pIC50 is a log-scale quantity: -log10 of the concentration expressed in molar.

Answered examples (3):
CC(=O)Nc1cccc(-n2c(=O)n(C3CC3)c(=O)c3c(Nc4ccc(I)cc4F)n(C)c(=O)c(C)c32)c1 + C=CC(=O)N1CCN(c2nc(OCC3CCCN3C)nc3c2CCN(c2cccc4cccc(C)c24)C3)CC1CC#N = 9.89
Cn1ncnc1[C@H]1c2n[nH]c(=O)c3cc(F)cc(c23)N[C@@H]1c1ccc(F)cc1 + CNCc1ccccc1-c1csc(C(C)Nc2nc(C)nc3cc(OC)c(OC)cc23)c1 = 8.24
COc1cc2nccc(Oc3ccc(NC(=O)C4(C(=O)Nc5ccc(F)cc5)CC4)cc3)c2cc1OC + C=CC(=O)N1CCN(c2nc(=O)n(-c3c(C)ccnc3C(C)C)c3nc(-c4c(O)cccc4F)c(F)cc23)C(C)C1 = 5.97

For this compound ( COc1cc2nccc(Oc3ccc(NC(=O)C4(C(=O)Nc5ccc(F)cc5)CC4)cc3)c2cc1OC + CNCc1ccccc1-c1csc(C(C)Nc2nc(C)nc3cc(OC)c(OC)cc23)c1 ), measured pIC50 is 5.78

CC(C)n1nc(-c2ccc3oc(N)nc3c2)c2c(N)ncnc21 + CNCc1ccccc1-c1csc(C(C)Nc2nc(C)nc3cc(OC)c(OC)cc23)c1 yielded pIC50 of 8.64

For CC(C)NCC(C(=O)N1CCN(c2ncnc3c2C(C)CC3O)CC1)c1ccc(Cl)cc1 (stereo unspecified) + COc1cc2nc(C)nc(NC(C)c3cc(N)cc(C(F)(F)F)c3)c2cc1OC1CCOC1 the compound record lists pIC50 as 7.04

Query Cn1nccc1Nc1nccc(-c2cc3c(s2)C(C)(C)N(CCN2CCOCC2)C3=O)n1 + COc1cc2nc(C)nc(NC(C)c3cc(N)cc(C(F)(F)F)c3)c2cc1OC1CCOC1 yields pIC50 of 6.08

###

Test system: KRAS-mutant PDC tumor spheroid with HUVEC/MSC, viability
PROCEDURE DETAILS: Anticancer human tumor 327498-153-R-J2-PDC cell line growth inhibition [KRAS2];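 further: spheroids exposed to agents for seven days before reading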
SETTINGS: curve of first compound; second compound 0.316 µM
Source text: Multicellular complex tumor spheroid response to RAS pathway inhibitors in combination with a targeted agents in patient-derived cell lines with oncogenic KRAS variants from multiple cancer types A high-throughput screen of multi-cell type tumor spheroids was designed to identify active combinations of targeted small molecules and KRAS pathway inhibitors. […] Compounds. […] If the clinical Cmax for an agent had not been determined, the highest concentration tested was 10 microM. […]
pIC50: −log10 of the molar value.
Recorded pIC50 values for a group of compounds are listed next.

CC(=O)OC12COC1CC(O)C1(C)C(=O)C(O)C3=C(C)C(OC(=O)C(O)C(NC(=O)OC(C)(C)C)c4ccccc4)CC(O)(C(OC(=O)c4ccccc4)C21)C3(C)C (configuration not stated) + CC1OCC2(CCN(c3cnc(Sc4ccnc(N)c4Cl)c(N)n3)CC2)C1N = > 8.00

// moving on: another record for pIC50
Lookup result for COC(=O)c1ccc2c(C(=Nc3ccc(N(C)C(=O)CN4CCN(C)CC4)cc3)c3ccccc3)c(O)[nH]c2c1 + C=CC(=O)N1CCN(c2nc(=O)n(-c3c(C)ccnc3C(C)C)c3nc(-c4c(O)cccc4F)c(F)cc23)C(C)C1 ; measured pIC50: > 7.50
